Assign activity to each entry below.
# measured.on: Tumor necrosis factor receptor superfamily member 10B (Homo sapiens)
# assay.overview: caspase-8 TRAIL sensitization, hit retest, confirmation, cell-based, NB7+caspase-8, with/without TRAIL, luminescence panel (AID 651596)
# experimental.parameters: NB7 neuroblastoma + caspase-8, TRAIL sensitization, luminescence viability, with TRAIL, mean of runs, at 10 µM, stronger effect = higher value
One number for each entry, in %.

Some solved entries appear below for comparison.
compound: O=C(O)c1ccc(N/N=C/c2cc3cc4c(cc3nc2Cl)OCCO4)cc1
value.unit: %
activity: 96.3

compound: Cn1c2ccccc2c(=O)c2ccc(C#CC3(O)CCCCC3)cc21
value.unit: %
activity: 91.3

compound: COC(=O)c1ccc(/C=C(\C#N)c2ccccn2)cc1
value.unit: %
activity: 51

compound: NC(=S)NN=C1c2ccccc2-c2c(F)c(F)c(F)c(F)c21
value.unit: %
activity: 72.1

compound: COc1cccc(/C=C2/Sc3ccc(C(=O)NCCN4CCCCCC4)cc3NC2=O)c1
value.unit: %
activity: 36

compound: CC(=O)c1c(C)[nH]c(C(=O)Nc2ccccn2)c1C
value.unit: %
activity: 31.1

Would you be so kind as to report activity for each listed record?
1. COc1ccc(C(=O)Nc2nnc(SCC(=O)NCc3ccco3)s2)c(OC)c1
2. O=C(Nc1ccccc1)NN(C(=O)CCl)c1ccccc1
3. Cc1nc2nc(C)n(CCN3CCOCC3)c(=O)c2c(-c2cccc([N+](=O)[O-])c2)c1C(=O)CCCCCCCCCCN1CCC(c2ccccc2)(c2ccccc2)CC1

1. 65.7
2. 98.3
3. 92.6

###

Assign activity to each entry below.
# measured.on: Tumor necrosis factor receptor superfamily member 10B (Homo sapiens)
# assay.overview: caspase-8 TRAIL sensitization, hit retest, confirmation, cell-based, NB7+caspase-8, with/without TRAIL, luminescence panel (AID 651596)
# experimental.parameters: NB7 neuroblastoma + caspase-8, TRAIL sensitization, luminescence viability, with TRAIL, mean of runs, at 10 µM, stronger effect = higher value
Answer as a quantity: numeral, then unit.

compound: CC(C)[C@@H](CO)NC(=O)c1ccc2c3n(nc2c1)-c1ccccc1CO3
measured.on: Tumor necrosis factor receptor superfamily member 10B (Homo sapiens)
activity: 71.1%

compound: COc1ccccc1C=C1CCc2ccccc2C1=O
measured.on: Tumor necrosis factor receptor superfamily member 10B (Homo sapiens)
activity: 78.4%

compound: CC(=O)n1cc(N(C(=O)CCl)c2ccc(C)cc2)c2ccccc21
measured.on: Tumor necrosis factor receptor superfamily member 10B (Homo sapiens)
activity: 99.6%

Could you tell me activity for each of these compounds? They are listed below.
1. C[C@H](NC(=O)c1[nH]cnc1C(=O)Nc1ccc(CNC(=O)OC(C)(C)C)cc1)C(=O)OCc1ccccc1
2. Clc1ccc(CN2CCc3c([nH]c4ccccc34)C2)cc1Cl

1. 63.1%
2. -9.62%

For every item below, please supply its activity.
1. CN(c1ccccc1)S(=O)(=O)c1ccc(NC(=O)c2nc(S(C)(=O)=O)ncc2Cl)cc1
2. O=[N+]([O-])c1ccc(Sc2ccncn2)c([N+](=O)[O-])c1
3. Oc1cc(NCc2ccc(F)cc2)cc2cccnc12

80.7%
16.8%
36.8%

For the 3 compounds below, give their activity values.
1. Cc1cccc(NC(=O)c2nc[nH]c2C(=O)N[C@@H](CCCCNC(=O)OC(C)(C)C)C(=O)OC(C)(C)C)c1
2. CC(C)(C)c1ccc(NC(=O)c2ccsc2)cc1
3. CCOc1ccc(OCC(=O)N(CCC2=CCCCC2)c2c(N)n(Cc3ccccc3)c(=O)[nH]c2=O)cc1

1: 80.3%; 2: 73.7%; 3: 48.6%
